Target or system: P2X2/3 (Homo sapiens (Human), UniProt P56373+Q9UBL9)
Sequence (Q9UBL9 whole entry): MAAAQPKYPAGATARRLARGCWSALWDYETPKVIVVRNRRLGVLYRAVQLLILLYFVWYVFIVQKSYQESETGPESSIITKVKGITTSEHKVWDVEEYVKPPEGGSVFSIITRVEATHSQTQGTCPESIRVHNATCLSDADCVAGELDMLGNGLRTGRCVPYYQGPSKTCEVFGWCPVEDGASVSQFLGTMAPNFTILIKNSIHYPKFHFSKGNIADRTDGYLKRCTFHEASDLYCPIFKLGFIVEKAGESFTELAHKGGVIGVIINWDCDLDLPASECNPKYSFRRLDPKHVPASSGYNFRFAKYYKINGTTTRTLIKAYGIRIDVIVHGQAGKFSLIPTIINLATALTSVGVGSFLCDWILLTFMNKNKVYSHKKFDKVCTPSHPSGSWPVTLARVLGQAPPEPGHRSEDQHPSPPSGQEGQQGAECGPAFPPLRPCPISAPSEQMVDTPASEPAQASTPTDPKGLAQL
Sequence (P56373 whole entry): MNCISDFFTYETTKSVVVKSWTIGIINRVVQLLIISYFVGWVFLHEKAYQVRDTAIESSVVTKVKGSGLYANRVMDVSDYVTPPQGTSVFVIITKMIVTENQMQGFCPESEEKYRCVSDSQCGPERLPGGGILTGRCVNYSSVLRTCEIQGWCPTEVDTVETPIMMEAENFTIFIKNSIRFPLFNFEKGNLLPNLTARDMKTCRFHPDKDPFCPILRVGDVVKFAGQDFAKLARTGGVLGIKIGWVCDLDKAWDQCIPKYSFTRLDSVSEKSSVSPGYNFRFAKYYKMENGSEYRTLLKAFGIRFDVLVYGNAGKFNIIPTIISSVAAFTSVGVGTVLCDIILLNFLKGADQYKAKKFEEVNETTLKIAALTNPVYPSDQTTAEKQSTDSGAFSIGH
Protocol details: Calcium uptake assay (P2X antagonist assay), P2X2/3
Run parameters: inhibition of agonist-induced calcium influx
Readout kind: pIC50
Answer as the number alone; pIC50 is minus log10 of concentration in mol/L.

Notebook: Cc1ccc(N2CCc3ncnc(N[C@H](CCO)c4ccc(C)nc4)c3C2)nc1 , pIC50 read as 6.88

Notebook: COc1ccc([C@@H](CCO)Nc2ncnc3c2CN(c2ccc(C)cn2)CC3)cn1 , pIC50 read as 7.08

Notebook: COc1ccc([C@@H](CO)Nc2ncnc3c2CN(c2ccc(C)cn2)CC3)cn1 , pIC50 read as 7.01

Notebook: Cc1ccc(N2CCc3ncnc(N[C@H](CO)c4ccc(C(F)(F)F)cc4)c3C2)nc1 , pIC50 read as 5.40

* * *

Target or system: P2X3 (Homo sapiens (Human))
Sequence (P56373 whole entry): as above
Protocol details: Calcium uptake assay (P2X antagonist assay), P2X3
Run parameters: inhibition of agonist-induced calcium influx
Readout kind: IC50

>>> df
                                   molecule  readout_kind  observed_result
0  Cc1ccc(N2CCc3ncnc(N[C@@H](C)c4ccc(Cl)cc4)c3C2)nc1 [Compound 6]          IC50         > 7.2 µM

Notebook: CC[C@H](Nc1ncnc2c1CN(c1ccc(C)cn1)CC2)c1ccccc1 [Compound 45] , IC50 read as > 10 µM

Notebook: C[C@H](Nc1ncnc2c1CN(c1ccc(Cl)cn1)CC2)c1ccc(C(F)(F)F)nc1 [Compound 51] , IC50 read as > 10 µM
